Record: compiled log10(IC50) on Serine/threonine-protein kinase pim-3 (Homo sapiens, UniProt Q86V86) from multiple reports.
Could you please treat all values as log10 of IC50 in nM?

{"columns": ["compound", "numeric-result"],
 "data": [
  ["COCc1cc(F)c(-c2nc(C(=O)Nc3cnccc3[C@H]3C[C@@H](N)[C@H](O)[C@@H](C)C3)ccc2F)c(F)c1", 0.42],
  ["NC1CN(c2ccncc2NC(=O)c2csc(-c3c(F)cccc3F)n2)CCC1Cl (centres unmarked)", 1.08],
  ["CC(C)OCc1cc(F)c(-c2nc(C(=O)Nc3cnccc3[C@H]3C[C@@H](N)[C@H](O)[C@@H](C)C3)ccc2F)c(F)c1", 0.17],
  ["N[C@@H]1CN(c2ccncc2NC(=O)c2csc(-c3c(F)cccc3F)n2)CC[C@@H]1O", 0.00],
  ["COCCOc1ccc(F)c(-c2nc(C(=O)Nc3cnccc3[C@@H]3C[C@H](C)C[C@H](N)C3)ccc2F)c1F", 0.10],
  ["C[C@@H]1C[C@H](N)C[C@H](c2ccncc2NC(=O)c2ccc(F)c(-c3c(F)ccc(OC[C@@H](O)CO)c3F)n2)C1", -0.02],
  ["CC(C)Oc1ccc(F)c(-c2nc(C(=O)Nc3cnccc3[C@@H]3C[C@H](C)C[C@H](N)C3)cs2)c1F", 0.48],
  ["NC1CC(CF)CN(c2ccncc2NC(=O)c2csc(-c3c(F)cccc3F)n2)C1 (centres unmarked)", 0.60]
]}

Problem: Give the value of log10(IC50) reported for the following: "C[C@@H]1C[C@H](N)C[C@H](c2ccncc2NC(=O)c2ccc(F)c(-c3c(F)cc(OC4COC4)cc3F)n2)C1"
Result: -0.62

Problem: // Input: "CC(C)[C@@H]1C[C@H](N)C[C@H](c2ccncc2NC(=O)c2ccc(F)c(-c3c(F)cc(C(C)(C)O)cc3F)n2)C1" . Output its log10(IC50) only.
Result: -0.38

Problem: Using known records, supply log10(IC50) for "COCc1cc(F)c(-c2nc(C(=O)Nc3cnccc3[C@@H]3C[C@H](C)C[C@H](N)C3)ccc2F)c(F)c1"
Result: 0.33

Problem: Supply measured log10(IC50) of "N[C@H]1CCCN(c2ccncc2NC(=O)c2csc(-c3ccccc3)n2)C1" in your reply.
Result: 0.36

Problem: Tell me its log10(IC50) given "C[C@H]1CN(c2ccncc2NC(=O)c2ccc(F)c(-c3c(F)cc([C@@H](O)CO)cc3F)n2)C[C@@H](N)[C@@H]1O" as the entry.
Result: -0.19

Problem: In one line, give reported log10(IC50) of the entry "Nc1ccc(-c2ccccc2)nc1-c1cc2c(N3CCC[C@H](N)C3)ccnc2cn1" .
Result: 0.60

Problem: Output log10(IC50) of "CCOCc1cc(F)c(-c2nc(C(=O)Nc3cnccc3[C@H]3C[C@@H](N)[C@H](O)[C@@H](C)C3)ccc2F)c(F)c1"
Result: 0.12

Problem: Return log10(IC50) for the following compound: "Nc1cnc(-c2ccccc2F)nc1-c1cc2c(N3CCC[C@H](N)C3)ccnc2cn1"
Result: 0.48

Problem: Respond only with log10(IC50) recorded for "C[C@@H]1C[C@H](N)C[C@H](c2ccncc2NC(=O)c2ccc(F)c(-c3c(F)cc(-c4ccnnc4)cc3F)n2)C1"
Result: 1.25

Problem: Return log10(IC50) (reported value) for this compound: CCOc1ccc(F)c(-c2nc(C(=O)Nc3cnccc3[C@@H]3C[C@H](C)C[C@H](N)C3)cs2)c1F (stereo in doubt)
Result: 0.48

Problem: Give recorded log10(IC50). "Nc1ccc(-c2cc(C(=O)NC3CCCCC3)ccc2F)nc1-c1cc2c(N3CCC[C@H](N)C3)ccnc2cn1"
Result: 1.34

Problem: Tell me measured log10(IC50) for "C[C@H]1C[C@@H](c2ccncc2NC(=O)c2csc(-c3c(F)cccc3F)n2)C[C@@H](N)[C@H]1O" please.
Result: 1.18

Problem: Specify measured log10(IC50) for "C[C@@H]1C[C@H](N)C[C@H](c2ccncc2NC(=O)c2nc(-c3c(F)cc(OC4CCOCC4)cc3F)c(F)cc2N)C1" .
Result: -0.66

----------
A compilation of published IC50 results with Serine/threonine-protein kinase pim-3 (Homo sapiens).
Use IC50 to assign classes; range list: bin 0 = under 0.0007 µM, bin 1 = from 0.0007 µM up to 0.02 µM, bin 2 = 0.02 µM and over

Use these answered entries as a reference point.
{"columns": ["compound", "category"],
 "data": [
  ["CCOc1ccc(F)c(-c2nc(C(=O)Nc3cnccc3N3C[C@@H](N)[C@H](O)[C@@H](C)C3)ccc2F)c1F", "bin 0"],
  ["Cc1cc(-c2cnc3ccc(NC45CCC(O)(CC4)C5)nn23)n[nH]1", "bin 2"],
  ["Nc1sc(-c2c(F)cccc2F)nc1C(=O)Nc1cnccc1[C@@H]1CC[C@H](O)[C@H](N)C1 (stereo in doubt)", "bin 1"],
  ["C[C@@H]1C[C@H](N)C[C@H](c2ccncc2NC(=O)c2ccc(F)c(-c3c(F)cc([S@+](C)[O-])cc3F)n2)C1", "bin 2"],
  ["C[C@@H]1CN(c2ccncc2NC(=O)c2csc(-c3c(F)cccc3F)n2)C[C@@H](N)[C@H]1O", "bin 1"]
]}

Problem: Lab note: sort "C[C@H]1CN(c2ccncc2NC(=O)c2ccc(F)c(-c3c(F)cc(C4CCOCC4)cc3F)n2)C[C@@H](N)[C@@H]1O" into the matching IC50 band.
Result: bin 0

Problem: Band of "C[C@H]1C[C@@H](c2ccncc2NC(=O)c2ccc(F)c(-c3c(F)cc(C4CCS(=O)(=O)CC4)cc3F)n2)C[C@@H](N)[C@@H]1O" ?
Result: bin 0

Problem: Into which bin does this compound go? "N[C@H]1CCCN(c2ccncc2NC(=O)c2csc(C3CCCCC3)n2)C1"
Result: bin 2

----------
Dear all, I have gathered published pIC50 values for Serine/threonine-protein kinase pim-3 (Homo sapiens, UniProt Q86V86); the list follows.
Scale for pIC50: -log10 of concentration given in mol/L; no unit attached.

Here's what some known entries look like.
{"columns": ["line-notation", "target-desc", "numeric-result"],
 "data": [
  ["COCCc1cc(F)c(-c2nc(C(=O)Nc3cnccc3[C@H]3C[C@@H](N)[C@H](O)[C@@H](C)C3)ccc2F)c(F)c1", "Serine/threonine-protein kinase pim-3 (Homo sapiens, UniProt Q86V86)", 8.92],
  ["COc1ccc2c(c1CN1C[C@@H](C)N[C@@H](C)C1)O/C(=C\\c1n[nH]c3ncccc13)C2=O", "Serine/threonine-protein kinase pim-3 (Homo sapiens, UniProt Q86V86)", 7.72],
  ["Nc1ccc(-c2ccc(F)cc2F)nc1-c1cc2c(N3CCC[C@H](N)C3)ccnc2cn1", "Serine/threonine-protein kinase pim-3 (Homo sapiens, UniProt Q86V86)", 7.89],
  ["C[C@H]1C[C@@H](c2ccncc2NC(=O)c2ccc(F)c(-c3c(F)cc(C4CCOCC4)cc3F)n2)C[C@@H](N)[C@@H]1O", "Serine/threonine-protein kinase pim-3 (Homo sapiens, UniProt Q86V86)", 9.41],
  ["Cc1noc(C)c1-c1cc(F)c(-c2nc(C(=O)Nc3cnccc3[C@@H]3C[C@H](C)C[C@H](N)C3)ccc2F)c(F)c1", "Serine/threonine-protein kinase pim-3 (Homo sapiens, UniProt Q86V86)", 8.00],
  ["COC(C)(C)c1cc(F)c(-c2nc(C(=O)Nc3cnccc3[C@H]3C[C@@H](N)[C@H](O)[C@@H](C)C3)c(N)cc2F)c(F)c1", "Serine/threonine-protein kinase pim-3 (Homo sapiens, UniProt Q86V86)", 8.89]
]}

Problem: Consider the molecule "C[C@@H]1C[C@H](O)C[C@H](c2ccncc2NC(=O)c2csc(-c3c(F)cccc3F)n2)C1" tested on Serine/threonine-protein kinase pim-3 (Homo sapiens, UniProt Q86V86); state its pIC50.
Result: 8.10

Problem: Report its pIC50 with Serine/threonine-protein kinase pim-3 (Homo sapiens, UniProt Q86V86) as the test system: "C[C@@H]1C[C@H](N)C[C@H](c2ccncc2NC(=O)c2ccc(F)c(-c3c(F)cc4c(c3F)OCC4)n2)C1"
Result: 9.52

Problem: Tell me its pIC50 on Serine/threonine-protein kinase pim-3 (Homo sapiens, UniProt Q86V86): "CS(=O)(=O)c1cccc(-c2ccc(N)c(-c3cc4c(N5CCC[C@H](N)C5)ccnc4cn3)n2)c1"
Result: 8.00

Problem: Param request: pIC50 | system Serine/threonine-protein kinase pim-3 (Homo sapiens, UniProt Q86V86) | item "O=C1NC(=O)c2c1c1c3cccc(O)c3[nH]c1c1[nH]c3c(O)cccc3c21"
Result: 9.70

Problem: Find pIC50 for "CCOC(C)(C)c1cc(F)c(-c2nc(C(=O)Nc3cnccc3[C@@H]3C[C@H](C)C[C@H](N)C3)ccc2F)c(F)c1" on Serine/threonine-protein kinase pim-3 (Homo sapiens, UniProt Q86V86) and write it down.
Result: 8.70

Problem: Quote Serine/threonine-protein kinase pim-3 (Homo sapiens, UniProt Q86V86) pIC50 for entry "C[C@@H]1C[C@H](N)C[C@H](c2ccncc2NC(=O)c2ccc(F)c(-c3c(F)cc(C4(F)CCOCC4)cc3F)n2)C1" .
Result: 8.94
